# ASSAY REMARKS: Product stability in DPBS at 25° C.
# Format: physicochemical
# EXPERIMENTAL CONDITIONS: DPBS (+Ca2+, +Mg2+), 20 h, mean ± SD, normalized to fraction immediately after preparation
READOUT TYPE: Fraction of radioligand in DPBS at 25° C., 20 h (%)
Express it in %; write the number only.

COMPOUND	UNITS OF MEASURE	QUANTITATIVE RESULT
CC1(C)CN(CCCCC(=O)N[C@@H](CCCCNC(=O)CCCCCCC(=O)NCCCC[C@H](NC(=O)N[C@@H](CCC(=O)O)C(=O)O)C(=O)O)C(=O)O)CC[N]2CC(C)(C)[S][99Tc]2(=[O])[S]1 (some centres unmarked) [[^99mTc]TcO-3]	%	89.1
CC1(C)CN(CCCCC(=O)N[C@@H](Cc2ccccc2)C(=O)N[C@@H](Cc2ccccc2)C(=O)N[C@@H](CCCCNC(=O)CCCCCCC(=O)NCCCC[C@H](NC(=O)N[C@@H](CCC(=O)O)C(=O)O)C(=O)O)C(=O)O)CC[N]2CC(C)(C)[S][99Tc]2(=[O])[S]1 (some centres unmarked) [[^99mTc]TcO-1]	%	93.5
CC1(C)CN(CCCCC(=O)N[C@H](Cc2ccc(O)c(I)c2)C(=O)N[C@H](Cc2ccccc2)C(=O)N[C@H](CCCCNC(=O)CCCCCCC(=O)NCCCC[C@H](NC(=O)N[C@@H](CCC(=O)O)C(=O)O)C(=O)O)C(=O)O)CC[N]2CC(C)(C)[S][99Tc]2(=[O])[S]1 (some centres unmarked) [[^99mTc]TcO-4]	%	98.0
O=C(O)CC[C@H](NC(=O)N[C@@H](CCCCNC(=O)CCCCCCC(=O)NCCCC[C@@H](NC(=O)[C@H](CCC(=O)O)NC(=O)[C@H](CCC(=O)O)NC(=O)CCC(=O)NCCCN1CC[S][99Tc]2(=[O])[S]CC[N]2CC1)C(=O)O)C(=O)O)C(=O)O (some centres unmarked) [[^99mTc]TcO-6]	%	18.7

Now let's try a different one.
Value of Fraction of radioligand in DPBS at 25° C., 20 h reported for the compound CC1(C)CN(CCCCC(=O)N[C@@H](Cc2ccccc2)C(=O)N[C@@H](Cc2ccccc2)C(=O)N[C@H](CCCCNC(=O)CCCCCCC(=O)NCCCC[C@H](NC(=O)N[C@@H](CCC(=O)O)C(=O)O)C(=O)O)C(=O)O)CC[N]2CC(C)(C)[S][99Tc]2(=[O])[S]1 (some centres unmarked) [[^99mTc]TcO-2] is 89.2
